# PROCEDURE TEXT: Fluorescence properties of the new compounds (excitation and emission wavelengths)
# Type: physicochemical
# CONDITIONS: free compound
READOUT TYPE: Fluorescence Excitation (nm)

1. Cn1c2c3ccccc3nc-2c(NC[C@H](O)CO)c2ccccc21 = 340
2. CC(=O)N[C@@H](CCCNC(=O)CNC(=O)c1c2ccccc2nc2c1[nH]c1ccccc12)C(=O)N[C@@H](CCCNC(=O)CNC(=O)c1c2ccccc2nc2c1[nH]c1ccccc12)C(=O)N[C@@H](CCCNC(=O)CNC(=O)c1c2ccccc2nc2c1[nH]c1ccccc12)C(N)=O = 338
3. C[C@@H](O)[C@H](CO)NC(=O)c1cc(-c2ccccc2)nc2ccccc12 = 326
4. CC(O)C(COP(=O)(O)OC(C)C(CO)NC(=O)c1cc(-c2ccccc2)nc2ccccc12)NC(=O)c1cc(-c2ccccc2)nc2ccccc12 (stereo not drawn) = 330
5. CC(=O)NCCN(CC(=O)NCCN(CC(=O)NCCN(CC(=O)NCCCCCCO)C(=O)CNC(=O)c1c2ccccc2nc2ccccc12)C(=O)CNC(=O)c1c2ccccc2nc2ccccc12)C(=O)CNC(=O)c1c2ccccc2nc2ccccc12 = 360
6. CC(=O)NC1CC(C(=O)NC2CC(C(=O)NC3CC(C(N)=O)N(C(=O)CNC(=O)c4c5ccccc5nc5ccccc45)C3)N(C(=O)CNC(=O)c3c4ccccc4nc4ccccc34)C2)N(C(=O)CNC(=O)c2c3ccccc3nc3ccccc23)C1 (stereo not drawn) = 275
7. CC(O)C(COP(=O)(O)OC(C)C(COP(=O)(O)OC(C)C(COP(=O)(O)OC(C)C(COP(=O)(O)OC(C)C(COP(=O)(O)OC(C)C(CO)NC(=O)c1c2ccccc2nc2ccccc12)NC(=O)c1c2ccccc2nc2ccccc12)NC(=O)c1c2ccccc2nc2ccccc12)NC(=O)c1c2ccccc2nc2ccccc12)NC(=O)c1c2ccccc2nc2ccccc12)NC(=O)c1c2ccccc2nc2ccccc12 (stereo not drawn) = 350
8. CC(=O)N1CC(NC(=O)CNC(=O)c2c3ccccc3nc3ccccc23)C[C@H]1C(=O)N1CC(NC(=O)CNC(=O)c2c3ccccc3nc3c2[nH]c2ccccc23)C[C@H]1C(=O)N1CC(NC(=O)CNC(=O)c2c3ccccc3nc3c2[nH]c2ccccc23)C[C@H]1C(N)=O (stereo partly drawn) = 272
9. CC(=O)N1CC(NC(=O)CNC(=O)c2c3ccccc3nc3ccccc23)C[C@H]1C(=O)N1CC(NC(=O)CNC(=O)c2c3ccccc3nc3ccccc23)C[C@H]1C(N)=O (stereo partly drawn) = 274

* * *

# PROCEDURE TEXT: Fluorescence properties of the new compounds (excitation and emission wavelengths)
# Type: physicochemical
# CONDITIONS: free compound
Measured Fluorescence emission (nm) values are reported for all entries that follow.
READOUT TYPE: Fluorescence emission (nm)

1. CC(O)C(CO)NC(=O)c1c2ccccc2nc2ccccc12 (stereo not drawn) = 439
2. CC(=O)NC1CC(C(=O)NC2CC(C(=O)NC3CC(C(N)=O)N(C(=O)CNC(=O)c4c5ccccc5nc5ccccc45)C3)N(C(=O)CNC(=O)c3c4ccccc4nc4c3[nH]c3ccccc34)C2)N(C(=O)CNC(=O)c2c3ccccc3nc3ccccc23)C1 (stereo not drawn) = 503
3. CC(=O)NC1CC(C(=O)NC2CC(C(N)=O)N(C(=O)CNC(=O)c3c4ccccc4nc4c3[nH]c3ccccc34)C2)N(C(=O)CNC(=O)c2c3ccccc3nc3ccccc23)C1 (stereo not drawn) = 500
